# TESTED TARGET: Cholinesterase (Equus caballus, UniProt P81908)
# Sequence (P81908 whole entry): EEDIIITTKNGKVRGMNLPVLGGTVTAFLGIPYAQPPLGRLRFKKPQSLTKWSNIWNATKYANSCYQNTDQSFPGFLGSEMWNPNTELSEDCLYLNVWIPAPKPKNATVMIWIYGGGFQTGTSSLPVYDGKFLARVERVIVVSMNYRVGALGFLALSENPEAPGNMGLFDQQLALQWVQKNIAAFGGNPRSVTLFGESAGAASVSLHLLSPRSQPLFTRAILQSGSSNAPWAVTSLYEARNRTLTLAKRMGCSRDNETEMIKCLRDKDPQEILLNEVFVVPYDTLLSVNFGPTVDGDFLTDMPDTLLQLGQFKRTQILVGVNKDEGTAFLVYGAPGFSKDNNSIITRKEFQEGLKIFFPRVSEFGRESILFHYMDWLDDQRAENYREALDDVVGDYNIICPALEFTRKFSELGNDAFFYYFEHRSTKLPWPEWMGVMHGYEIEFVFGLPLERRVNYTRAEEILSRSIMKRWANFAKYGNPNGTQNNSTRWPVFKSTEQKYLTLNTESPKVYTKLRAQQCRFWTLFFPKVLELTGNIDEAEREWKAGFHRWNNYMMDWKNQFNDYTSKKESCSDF
pIC50: −log10 of the molar value.
Param threshold (7) applies to pIC50; output rule met when value >= threshold, rule not met when value < threshold.

O=C(/C=C/c1ccc(O)cc1)NCCCNc1c2c(nc3ccccc13)CCCC2    rule met
Cc1nc(C)c(COc2ccc(CC(O)C(=O)NCCNc3c4c(nc5ccccc35)CCCC4)cc2OCc2nc(C)c(C)nc2C)nc1C (stereo unspecified)    rule not met
COc1cc(/C=C/C(=O)NCCCCCCCCNc2c3c(nc4ccccc24)CCCC3)ccc1OCc1nc(C)c(C)nc1C    rule not met
COc1cc(/C=C/C(=O)NCCCCNc2c3c(nc4ccccc24)CCCC3)cc(OC)c1OCc1nc(C)c(C)nc1C    rule not met
COc1cc(/C=C/C(=O)NCCCNc2c3c(nc4ccccc24)CCCC3)cc(OC)c1O    rule not met
COc1cc(/C=C/C(=O)NCCCCCCCCNc2c3c(nc4ccccc24)CCCC3)cc(OC)c1OCc1nc(C)c(C)nc1C    rule met
Cc1nc(C)c(COc2ccc(/C=C/C(=O)NCCCCNc3c4c(nc5ccccc35)CCCC4)cc2)nc1C    rule met
COc1cc(/C=C/C(=O)NCCCNc2c3c(nc4ccccc24)CCCC3)cc(OC)c1OCc1nc(C)c(C)nc1C    rule not met
Cc1nc(C)c(COc2ccc(CC(O)C(=O)NCCCNc3c4c(nc5ccccc35)CCCC4)cc2OCc2nc(C)c(C)nc2C)nc1C (stereo unspecified)    rule not met
COc1cc(/C=C/C(=O)NCCNc2c3c(nc4ccccc24)CCCC3)ccc1OCc1nc(C)c(C)nc1C    rule not met
COc1cc(/C=C/C(=O)NCCCNc2c3c(nc4ccccc24)CCCC3)ccc1OCc1nc(C)c(C)nc1C    rule met
Cc1nc(C)c(COc2ccc(/C=C/C(=O)NCCCNc3c4c(nc5ccccc35)CCCC4)cc2OCc2nc(C)c(C)nc2C)nc1C    rule not met
COc1cc(/C=C/C(=O)NCCCCCCCCNc2c3c(nc4ccccc24)CCCC3)cc(OC)c1O    rule met
